All figures here come from patent US20240309070A1.

Give pEC50 for every item shown.
System: T1, VV B5 monomer protein (Wyeth Vaccinia strain B5 with C-terminal AVI tag and HIS6 tag) (Vaccinia virus, Wyeth strain, UniProt O57254 18-279)
T1 construct: also called B5 protein; VV B5 protein
Assay info: ELISA, B5 monomer coated
Keep it numeric: pEC50 is minus log10 of the concentration in mol/L.

IN: Provide one value: measured pEC50 of A048-H1L2 (antibody, V domains shown) VH: EVQLLESGGGLVQPGGSLRLSCAASGFSFSSSYYMCWVRQAPGKGLEWIACIYTSSGSAYYANWAKGRFTISRDNSKNTLYLQMNSLRAEDTAVYYCVRNAVGSSYYLYLWGQGTLVTVSS VL: AQVLTQSPSTLSASVGDRVTITCQASQSVAGNNYLSWYQQKPGKAPKLLIYSVSTLASGVPSRFSGSGSGTEFTLTISSLQPDDFATYYCQGYYNDGIWAFGQGTKVEIK
OUT: 10.14

IN: Look up and state reported pEC50 for A048-H2L4 (antibody, V domains shown) VH: EVQLLESGGGLVQPGGSLRLSCAASGFSFSSSYYMCWVRQAPGKGLEWIACIYTSSGSAYYANWAKGRFTISRTSSTTVTLQMNSLRAEDTAVYYCVRNAVGSSYYLYLWGQGTLVTVSS VL: AQVLTQSPSSLSASVGDRVTITCQASQSVAGNNYLSWYQQKPGKVPKLLIYSVSTLASGVPSRFSGSGSGTDFTLTISSLQPEDVATYYCQGYYNDGIWAFGQGTKVEIK
OUT: 10.07

IN: Give reported pEC50 value for A048-H2L3 (antibody, V domains shown) VH: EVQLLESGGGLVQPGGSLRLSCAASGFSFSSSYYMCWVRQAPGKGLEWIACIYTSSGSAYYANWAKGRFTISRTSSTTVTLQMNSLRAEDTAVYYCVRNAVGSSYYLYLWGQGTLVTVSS VL: DIQMTQSPSSLSASVGDRVTITCQASQSVAGNNYLSWYQQKPGKVPKLLIYSVSTLASGVPSRFSGSGSGTDFTLTISSLQPEDVATYYCQGYYNDGIWAFGQGTKVEIK
OUT: 10.29

IN: Output measured pEC50 for this item: A048-H3L2 (antibody, V domains shown) VH: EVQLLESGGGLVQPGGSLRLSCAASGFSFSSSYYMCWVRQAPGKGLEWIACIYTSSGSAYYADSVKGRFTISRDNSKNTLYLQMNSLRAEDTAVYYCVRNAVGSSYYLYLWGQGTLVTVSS VL: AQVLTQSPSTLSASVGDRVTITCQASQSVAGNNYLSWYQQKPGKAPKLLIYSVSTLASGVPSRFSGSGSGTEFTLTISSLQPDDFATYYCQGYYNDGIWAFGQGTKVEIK
OUT: 10.08

IN: State, in one line, measured pEC50 of A048-H4L1 (antibody, V domains shown) VH: EVQLLESGGGLVQPGGSLRLSCAASGFSFSSSYYMCWVRQAPGKGLEWIACIYTSSGSAYYADSVKGRFTISRTSSTTVTLQMNSLRAEDTAVYYCVRNAVGSSYYLYLWGQGTLVTVSS VL: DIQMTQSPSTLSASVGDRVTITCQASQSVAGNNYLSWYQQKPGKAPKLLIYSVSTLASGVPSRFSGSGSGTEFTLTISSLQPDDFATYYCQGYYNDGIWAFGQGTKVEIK
OUT: 10.02

IN: Find the measured pEC50 of A048-H1L1 (antibody, V domains shown) VH: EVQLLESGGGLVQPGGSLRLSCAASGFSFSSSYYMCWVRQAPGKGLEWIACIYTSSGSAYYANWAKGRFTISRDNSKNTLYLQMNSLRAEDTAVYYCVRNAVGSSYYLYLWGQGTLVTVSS VL: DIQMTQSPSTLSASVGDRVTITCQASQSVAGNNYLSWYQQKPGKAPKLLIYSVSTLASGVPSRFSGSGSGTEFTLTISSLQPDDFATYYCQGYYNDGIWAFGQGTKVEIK and report it.
OUT: 10.06
